All figures here come from PubChem BioAssay AID1963854.

Test system: 186277-243-T-J2-PDC complex spheroid viability
Assay: Anticancer human tumor 186277-243-T-J2-PDC patient-derived colon adenocarcinoma cell line growth inhibition [POLQ]
Conditions: second compound 0.1 µM; first compound 1 µM; active compounds read low
Protocol: Multicellular complex tumor spheroid response to Polymerase (POL) inhibitors (novobiocin, ART-558, RP6685) in combination with a variety of drugs and investigational agents in selected tumor cell lines The POL inhibitors (novobiocin, ART-558, and RP6685) were evaluated both individually and in combination with standard of care and investigational anticancer small molecules within a complex spheroid model of solid tumors. . […]
measuredParameter: viability, T/C

{"columns": ["compound", "measuredParameter", "measuredValue"],
 "data": [
  ["CCc1cc2c(N3CCc4c(cc(Cn5ccnc5)cc4-c4cn(C)nc4C(F)(F)F)C3=O)ccnc2c(OC)n1 + Cc1cccc(N(C)C(=O)C2C(O)CCN2c2nc(C)cc(C(F)(F)F)c2C#N)c1", "viability, T/C", "88.6%"],
  ["CC1COCCN1c1cc(C2(O)CC3CCC(C2)O3)c2cnn(-c3ccn[nH]3)c2n1 (stereo not given) + Cc1cccc(N(C)C(=O)C2C(O)CCN2c2nc(C)cc(C(F)(F)F)c2C#N)c1", "viability, T/C", "3.73%"],
  ["C=CC(=O)N1CCN(c2nc(=O)n(-c3c(C)ccnc3C(C)C)c3nc(-c4c(O)cccc4F)c(F)cc23)C(C)C1 (stereo not given) + Cc1cccc(N(C)C(=O)C2C(O)CCN2c2nc(C)cc(C(F)(F)F)c2C#N)c1", "viability, T/C", "84.7%"],
  ["CC1COCCN1c1cc(C2(S(C)(=N)=O)CC2)nc(-c2ccnc3[nH]ccc23)n1 (stereo not given) + Nc1ccc(C#CCN(C(=O)Cc2ncc(C(F)(F)F)cc2C(F)(F)F)c2ccc(F)cc2)nn1", "viability, T/C", "85.9%"],
  ["COc1cc(C2c3cc4c(cc3C(OC3OC5COC(C)OC5C(O)C3O)C3COC(=O)C23)OCO4)cc(OC)c1O (stereo not given) + COC1C(OC(N)=O)C(O)C(Oc2ccc3c(O)c(NC(=O)c4ccc(O)c(CC=C(C)C)c4)c(=O)oc3c2C)OC1(C)C", "viability, T/C", "42.1%"]
]}

###

system: 186277-243-T-J2-PDC complex spheroid viability; assay: Anticancer human tumor 186277-243-T-J2-PDC cell line growth inhibition [POLQ]; settings: second compound 0.1 µM; first compound 0.316 µM; active compounds read low;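 also: spheroids exposed to compounds for seven days; 100% = DMSO vehicle control viability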
measuredParameter: viability, T/C (%)

{"columns": ["compound", "unitsOfMeasure", "measuredValue"],
 "data": [
  ["CC1COCCN1c1cc(C2(S(C)(=N)=O)CC2)nc(-c2ccnc3[nH]ccc23)n1 (stereo unspecified) + Cc1cccc(N(C)C(=O)C2C(O)CCN2c2nc(C)cc(C(F)(F)F)c2C#N)c1", "%", 109],
  ["COc1cc2cc(C(=O)CCC(=O)O)sc2cc1OC + COC1C(OC(N)=O)C(O)C(Oc2ccc3c(O)c(NC(=O)c4ccc(O)c(CC=C(C)C)c4)c(=O)oc3c2C)OC1(C)C", "%", 103],
  ["COc1cc(C2c3cc4c(cc3C(OC3OC5COC(C)OC5C(O)C3O)C3COC(=O)C23)OCO4)cc(OC)c1O (stereo unspecified) + Cc1cccc(N(C)C(=O)C2C(O)CCN2c2nc(C)cc(C(F)(F)F)c2C#N)c1", "%", 76],
  ["COc1cccc(OCCCN)c1-c1cc(Nc2cnc(C#N)cn2)n[nH]1 + Nc1ccc(C#CCN(C(=O)Cc2ncc(C(F)(F)F)cc2C(F)(F)F)c2ccc(F)cc2)nn1", "%", 8.61],
  ["CCc1cc2c(N3CCc4c(cc(Cn5ccnc5)cc4-c4cn(C)nc4C(F)(F)F)C3=O)ccnc2c(OC)n1 + Nc1ccc(C#CCN(C(=O)Cc2ncc(C(F)(F)F)cc2C(F)(F)F)c2ccc(F)cc2)nn1", "%", 100],
  ["COc1cccc2c1C(=O)c1c(O)c3c(c(O)c1C2=O)CC(O)(C(=O)CO)CC3OC1CC(N)C(O)C(C)O1 (stereo unspecified) + Nc1ccc(C#CCN(C(=O)Cc2ncc(C(F)(F)F)cc2C(F)(F)F)c2ccc(F)cc2)nn1", "%", 39],
  ["CC1COCCN1c1cc(C2(O)CC3CCC(C2)O3)c2cnn(-c3ccn[nH]3)c2n1 (stereo unspecified) + Cc1cccc(N(C)C(=O)C2C(O)CCN2c2nc(C)cc(C(F)(F)F)c2C#N)c1", "%", 5.9],
  ["CCc1cc2c(N3CCc4c(cc(Cn5ccnc5)cc4-c4cn(C)nc4C(F)(F)F)C3=O)cc(C)nc2c(OC)n1 + COC1C(OC(N)=O)C(O)C(Oc2ccc3c(O)c(NC(=O)c4ccc(O)c(CC=C(C)C)c4)c(=O)oc3c2C)OC1(C)C", "%", 92.7],
  ["O=C(c1cc(Cc2n[nH]c(=O)c3ccccc23)ccc1F)N1CCN(C(=O)C2CC2)CC1 + Cc1cccc(N(C)C(=O)C2C(O)CCN2c2nc(C)cc(C(F)(F)F)c2C#N)c1", "%", 96.3],
  ["CCCS(=O)(=O)Nc1ccc(F)c(C(=O)c2c[nH]c3ncc(-c4ccc(Cl)cc4)cc23)c1F + Cc1cccc(N(C)C(=O)C2C(O)CCN2c2nc(C)cc(C(F)(F)F)c2C#N)c1", "%", 79.3],
  ["CCc1cc2c(N3CCc4c(cc(Cn5ccnc5)cc4-c4cn(C)nc4C(F)(F)F)C3=O)ccnc2c(OC)n1 + COC1C(OC(N)=O)C(O)C(Oc2ccc3c(O)c(NC(=O)c4ccc(O)c(CC=C(C)C)c4)c(=O)oc3c2C)OC1(C)C", "%", 111],
  ["COc1ccc([C@@H](O)c2cc(-c3ncnc4cc(N5CCOCC5)ccc34)c(F)cc2Cl)nn1 + Nc1ccc(C#CCN(C(=O)Cc2ncc(C(F)(F)F)cc2C(F)(F)F)c2ccc(F)cc2)nn1", "%", 99.5],
  ["C=CCn1c(=O)c2cnc(Nc3ccc(N4CCN(C)CC4)cc3)nc2n1-c1cccc(C(C)(C)O)n1 + Nc1ccc(C#CCN(C(=O)Cc2ncc(C(F)(F)F)cc2C(F)(F)F)c2ccc(F)cc2)nn1", "%", 28.8],
  ["C#Cc1c(F)ccc2cc(O)cc(-c3ncc4c(N5CC6CCC(C5)N6)nc(OCC56CCCN5CC(F)C6)nc4c3F)c12 (stereo unspecified) + Nc1ccc(C#CCN(C(=O)Cc2ncc(C(F)(F)F)cc2C(F)(F)F)c2ccc(F)cc2)nn1", "%", 40.6],
  ["CNCc1ccc(-c2[nH]c3cc(F)cc4c3c2CCNC4=O)cc1 + COC1C(OC(N)=O)C(O)C(Oc2ccc3c(O)c(NC(=O)c4ccc(O)c(CC=C(C)C)c4)c(=O)oc3c2C)OC1(C)C", "%", 106],
  ["CCc1cc2c(N3CCc4c(cc(Cn5ccnc5)cc4-c4cn(C)nc4C(F)(F)F)C3=O)ccnc2c(OC)n1 + Cc1cccc(N(C)C(=O)C2C(O)CCN2c2nc(C)cc(C(F)(F)F)c2C#N)c1", "%", 107],
  ["COc1cccc2c1C(=O)c1c(O)c3c(c(O)c1C2=O)CC(O)(C(=O)CO)CC3OC1CC(N)C(O)C(C)O1 (stereo unspecified) + Cc1cccc(N(C)C(=O)C2C(O)CCN2c2nc(C)cc(C(F)(F)F)c2C#N)c1", "%", 11.1],
  ["COc1cc2cc(C(=O)CCC(=O)O)sc2cc1OC + Nc1ccc(C#CCN(C(=O)Cc2ncc(C(F)(F)F)cc2C(F)(F)F)c2ccc(F)cc2)nn1", "%", 91],
  ["COc1cc2cc(C(=O)CCC(=O)O)sc2cc1OC + Cc1cccc(N(C)C(=O)C2C(O)CCN2c2nc(C)cc(C(F)(F)F)c2C#N)c1", "%", 90.5],
  ["Nc1ccn(C2OC(CO)C(O)C2(F)F)c(=O)n1 (stereo unspecified) + Nc1ccc(C#CCN(C(=O)Cc2ncc(C(F)(F)F)cc2C(F)(F)F)c2ccc(F)cc2)nn1", "%", 12.4],
  ["CCc1cc2c(N3CCc4c(cc(Cn5ccnc5)cc4-c4cn(C)nc4C(F)(F)F)C3=O)cc(C)nc2c(OC)n1 + Nc1ccc(C#CCN(C(=O)Cc2ncc(C(F)(F)F)cc2C(F)(F)F)c2ccc(F)cc2)nn1", "%", 96.9]
]}
